# composite z-score listing for each entry below
TARGET_OR_SYSTEM: Calmodulin-1 (Homo sapiens) (UniProt P0DP23)
PROTOCOL_SUMMARY: small molecules binding Ca-loaded calmodulin-1 – biochemical, small-molecule microarray, Cy5-labelled CALM1, plus calcium, artefact control for SMM control-protein annotation, profiling panel (AID 1112);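 also: score merges spot fluorescence with signal to noise from triplicate slides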
SETTINGS: Cy5-CALM1 binding fluorescence, higher = more signal
ASSAY_READOUT: composite z-score

1. O=C1C2C=CC(C(O)c3cccs3)N(Nc3ccc([N+](=O)[O-])cc3)C2C(=O)N1c1ccccc1 (configuration not stated)
0.123
2. O=C1C[C@@](C(=O)NCc2ccccc2)(c2ccc([N+](=O)[O-])cc2)[C@@H](c2ccc(CO)cc2)N1C1CCCCC1
-0.386
3. COCCCN1C(=O)[C@@]2(c3ccc([N+](=O)[O-])cc3)CC(=O)N(CC34CC5CC(CC(C5)C3)C4)[C@@H]2c2ccc(CO)cc21
-0.406
4. CCCCCCc1nc(Cc2cc(OC)c(OC)c(OC)c2)cc2c1[Si](C(C)C)(C(C)C)O[C@H]2c1ccccc1
-0.593
5. COC(=O)C(CC#Cc1ccc2c(c1)[C@]1(C(=O)N2)[C@H](C(=O)NC[C@H](O)c2ccccc2)[C@H]2C(=O)O[C@H](c3ccccc3)[C@H](c3ccccc3)N2[C@@H]1c1ccccc1OCCO)C(=O)OC
-0.0643
6. COc1ccc(C(=O)Nc2cccc(CN3C(=O)[C@@]4(O[C@@H](CC(=O)N5CCC[C@H]5CO)[C@H]([Si](C)(C)c5ccc(OC)cc5)[C@H]4C)c4ccccc43)c2)cc1
0.78
7. CCCNC(=O)[C@@]1(c2ccc([N+](=O)[O-])cc2)CC(=O)N(C(C)C)[C@@H]1c1ccc(CO)cc1
0.263

====

System: XIP peptide (Xip251-270)
PROTOCOL_SUMMARY: compounds binding XIP fragment 251-270 – biochemical, small-molecule microarray, fluorescence 635/667 nm, 0.5 µg/mL protein, primary screen (AID 1183)
SETTINGS: fluorescence 635 nm, higher = more signal
List of composite z-score values.
ASSAY_READOUT: composite z-score

1) C=CCN1Cc2ccccc2[C@H]2OC(c3ccc(OCCCO)cc3)=N[C@@]2(CCS(=O)(=O)c2ccccc2)C1=O
0.767
2) NC(=O)NCC#Cc1ccc2c(c1)[C@]1(C(=O)N2)[C@H](c2ccc(OCCO)cc2)N2[C@H](c3ccccc3)[C@H](c3ccccc3)OC(=O)[C@H]2[C@@H]1C(=O)NC[C@H](O)c1ccccc1
0.594
3) CC(C)=CCCC(C)=CC(O)C1C=CC2C(=O)NC(=O)C2N1Nc1ccccn1 (configuration not stated)
0.628
4) CCOC(=O)C1=CC[C@@H](c2ccccc2)N(S(=O)(=O)c2ccc(C)cc2)[C@H]1c1ccccc1I
0.77
5) COc1ccc(C(=O)Nc2ccc(CN3C(=O)[C@@]4(O[C@@H](CCn5cc(CCO)nn5)[C@H]([Si](C)(C)c5ccc(OC)cc5)[C@H]4C)c4ccccc43)cc2)cc1
0.561
6) CCCCC(=C=CC[C@H](O)c1ccc(CO)o1)CCO
0.552
7) CCOC(=O)C[C@H]1[C@H](OC(=O)c2ccccc2-c2ccccc2)[C@@H](NC(=O)c2ccc3ccccc3c2)c2cc(OCCCO)ccc2N1C(=O)Cc1ccc(OC)cc1
-0.47

====

PROTOCOL_SUMMARY: probe aNog binding to arrayed compounds – biochemical, biotinylated probe, 635/667 nm fluorescence, primary screen (AID 1115);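 also: probe is biotinylated aNog protein used at 0.15 µg/mL for 1 h at 4 C; z-score combines 667 nm fluorescence of each spot with its signal to noise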
SETTINGS: small-molecule microarray, higher = more signal
ASSAY_READOUT: composite z-score

1. Cc1ccc(S[C@]2(C(=O)NCC(F)(F)F)CC(=O)N(Cc3ccccc3C(F)(F)F)[C@@H]2c2ccc(CO)cc2)cc1
0.526
2. COc1ccc(CCNC(=O)[C@@H]2c3ccccc3C(=O)N(Cc3ccccc3OC)[C@H]2c2ccc(CO)cc2)cc1
0.938
3. COc1cc(CO)cc(I)c1O[C@H]1C=C(C(=O)NCCO)C[C@@H](NC2CCCCCC2)[C@@H]1O
-0.0345
4. O=C1C2C=CC(C(O)c3c(F)cccc3Cl)N(Nc3ccc([N+](=O)[O-])cc3)C2C(=O)N1c1ccccc1 (stereo not drawn)
0.803
5. CCOC(=O)C[C@H]1[C@H](OC(=O)c2ccccc2-c2ccccc2)[C@@H](NC(=O)c2ccc3ccccc3c2)c2cc(OCCCO)ccc2N1C(=O)Cc1ccc(OC)cc1
0.257
6. CC(C)NC(=O)[C@@H]1c2ccccc2C(=O)N(Cc2ccccc2C(F)(F)F)[C@H]1c1ccc(CO)cc1
-1.04
7. C=CCNC(=O)[C@H]1[C@@H]2C(=O)O[C@@H](c3ccccc3)[C@@H](c3ccccc3)N2[C@@H](c2ccc(OCCO)cc2)[C@]12C(=O)Nc1ccccc12
0.666
8. NC(=O)NCC#Cc1ccc2c(c1)[C@]1(C(=O)N2)[C@H](c2ccc(OCCO)cc2)N2[C@H](c3ccccc3)[C@H](c3ccccc3)OC(=O)[C@H]2[C@@H]1C(=O)O
0.281
9. COC(=O)[C@@]1(Cc2ccccc2)[C@H]2c3cc(C(=O)N4CCCC4)n(Cc4ccc(OC)c(OC)c4)c3C[C@H]2CN1C(=O)c1ccccc1
1.85
10. CN(C)CCCNC(=O)[C@@H]1c2ccccc2C(=O)N(Cc2ccccc2C(F)(F)F)[C@H]1c1ccc(CO)cc1
-0.163
11. CCOC(=O)C1=CCC(c2cc3ccccc3[nH]2)N(CCN2CC(C(=O)OCC)=CCC2c2cc3ccccc3[nH]2)C1 (stereo not drawn)
0.302
12. COc1ccc([Si](C)(C)[C@H]2[C@H](CC(=O)N3Cc4ccccc4C[C@H]3CO)O[C@@]3(C(=O)N(C)c4ccccc43)[C@@H]2C)cc1
-0.299
13. COc1ccc([Si](C)(C)[C@@H]2[C@@H](CC(=O)N3Cc4ccccc4C[C@H]3CO)O[C@]3(C(=O)N(Cc4ccc(N5CCOC5=O)cc4)c4ccccc43)[C@H]2C)cc1
-0.339
14. NC(=O)N1C(=O)C2C(C1=O)C1C=C(CCCO)C2C(C2CC2)N1Cc1sc2ccccc2c1Cl (stereo not drawn)
0.654
15. COc1ccc(C(=O)Nc2cccc(CN3C(=O)[C@@]4(O[C@@H](CC(=O)N5CCC[C@H]5CO)[C@H]([Si](C)(C)c5ccc(OC)cc5)[C@H]4C)c4ccccc43)c2)cc1
-0.138
16. C#CCN1[C@@H](Cc2ccccc2)C(=O)O[C@H](Cc2ccccc2)[C@@H]1/C=C/C1CC1
-0.196
17. O=C1C2C=CC(C(O)C3CCCCC3)N(n3cnnc3)C2C(=O)N1Cc1ccccc1 (stereo not drawn)
1.07
18. CCOC(=O)C[C@H]1[C@H](OC(=O)c2ccccc2-c2ccccc2)[C@@H](NC(=O)C2CCCCC2)c2cc(OCCCO)ccc2N1C(=O)c1ccc2ccccc2n1
0.0707
19. CC(C)N1C(=O)c2ccccc2[C@](C)(C(=O)NCC(F)(F)F)[C@@H]1c1ccc(CO)cc1
0.543
20. [N-]=[N+]=Nc1ccccc1C[C@]1(C(=O)N2CCOCC2)N=C(c2ccc(OCCCO)cc2)O[C@H]1c1ccccc1N=[N+]=[N-]
-0.626
21. CC(C)c1nc2cc(Br)ccc2c(=O)o1
0.418
22. C=C(COC)/C(=C/C[C@@H](OC(C)=O)c1ccccc1OCCO)c1cnc2ccccc2c1
0.329
23. CC(C)(C)OC(=O)CC[C@@]1(C(=O)NCCN2CCOCC2)N=C(c2ccc(OCCCO)cc2)O[C@@H]1c1ccccc1CN=[N+]=[N-]
-0.481
24. Cc1ccc(S[C@]2(C(=O)NCc3ccccc3)CC(=O)N(Cc3ccccc3C(F)(F)F)[C@@H]2c2ccc(CO)cc2)cc1
0.381
25. C=CCOC(=O)[C@H]1[C@@H]2C(=O)O[C@@H](c3ccccc3)[C@@H](c3ccccc3)N2[C@@H](c2ccc(OCCOC(=O)[C@H]3C[C@H]4C(=O)N[C@@H](CC(C)C)C(=O)N4[C@H]3c3ccc(O)cc3)cc2)[C@]12C(=O)Nc1ccccc12
-0.582
26. CC1=C([C@H](O)CCc2ccccc2)[C@H](CO)n2c(=O)n(-c3ccccc3)c(=O)n2C1
-0.0438
27. COCCOC(=O)N1C(=O)[C@@]2(c3cc(C#CCC(C(=O)OC)C(=O)OC)ccc31)[C@H](c1ccc(O)cc1)N1[C@H](c3ccccc3)[C@H](c3ccccc3)OC(=O)[C@H]1[C@@H]2C(=O)Nc1nc2ccccc2s1
0.112
28. N#Cc1ccc(C(O)C2C=CC3C(=O)NC(=O)C3N2Nc2ccc(Cl)cc2Cl)cc1 (stereo not drawn)
0.732

====

TARGET_OR_SYSTEM: Neurogenic locus notch homolog protein 3 (Homo sapiens) (UniProt Q9UM47)
Sequence (Q9UM47 whole entry, looked up): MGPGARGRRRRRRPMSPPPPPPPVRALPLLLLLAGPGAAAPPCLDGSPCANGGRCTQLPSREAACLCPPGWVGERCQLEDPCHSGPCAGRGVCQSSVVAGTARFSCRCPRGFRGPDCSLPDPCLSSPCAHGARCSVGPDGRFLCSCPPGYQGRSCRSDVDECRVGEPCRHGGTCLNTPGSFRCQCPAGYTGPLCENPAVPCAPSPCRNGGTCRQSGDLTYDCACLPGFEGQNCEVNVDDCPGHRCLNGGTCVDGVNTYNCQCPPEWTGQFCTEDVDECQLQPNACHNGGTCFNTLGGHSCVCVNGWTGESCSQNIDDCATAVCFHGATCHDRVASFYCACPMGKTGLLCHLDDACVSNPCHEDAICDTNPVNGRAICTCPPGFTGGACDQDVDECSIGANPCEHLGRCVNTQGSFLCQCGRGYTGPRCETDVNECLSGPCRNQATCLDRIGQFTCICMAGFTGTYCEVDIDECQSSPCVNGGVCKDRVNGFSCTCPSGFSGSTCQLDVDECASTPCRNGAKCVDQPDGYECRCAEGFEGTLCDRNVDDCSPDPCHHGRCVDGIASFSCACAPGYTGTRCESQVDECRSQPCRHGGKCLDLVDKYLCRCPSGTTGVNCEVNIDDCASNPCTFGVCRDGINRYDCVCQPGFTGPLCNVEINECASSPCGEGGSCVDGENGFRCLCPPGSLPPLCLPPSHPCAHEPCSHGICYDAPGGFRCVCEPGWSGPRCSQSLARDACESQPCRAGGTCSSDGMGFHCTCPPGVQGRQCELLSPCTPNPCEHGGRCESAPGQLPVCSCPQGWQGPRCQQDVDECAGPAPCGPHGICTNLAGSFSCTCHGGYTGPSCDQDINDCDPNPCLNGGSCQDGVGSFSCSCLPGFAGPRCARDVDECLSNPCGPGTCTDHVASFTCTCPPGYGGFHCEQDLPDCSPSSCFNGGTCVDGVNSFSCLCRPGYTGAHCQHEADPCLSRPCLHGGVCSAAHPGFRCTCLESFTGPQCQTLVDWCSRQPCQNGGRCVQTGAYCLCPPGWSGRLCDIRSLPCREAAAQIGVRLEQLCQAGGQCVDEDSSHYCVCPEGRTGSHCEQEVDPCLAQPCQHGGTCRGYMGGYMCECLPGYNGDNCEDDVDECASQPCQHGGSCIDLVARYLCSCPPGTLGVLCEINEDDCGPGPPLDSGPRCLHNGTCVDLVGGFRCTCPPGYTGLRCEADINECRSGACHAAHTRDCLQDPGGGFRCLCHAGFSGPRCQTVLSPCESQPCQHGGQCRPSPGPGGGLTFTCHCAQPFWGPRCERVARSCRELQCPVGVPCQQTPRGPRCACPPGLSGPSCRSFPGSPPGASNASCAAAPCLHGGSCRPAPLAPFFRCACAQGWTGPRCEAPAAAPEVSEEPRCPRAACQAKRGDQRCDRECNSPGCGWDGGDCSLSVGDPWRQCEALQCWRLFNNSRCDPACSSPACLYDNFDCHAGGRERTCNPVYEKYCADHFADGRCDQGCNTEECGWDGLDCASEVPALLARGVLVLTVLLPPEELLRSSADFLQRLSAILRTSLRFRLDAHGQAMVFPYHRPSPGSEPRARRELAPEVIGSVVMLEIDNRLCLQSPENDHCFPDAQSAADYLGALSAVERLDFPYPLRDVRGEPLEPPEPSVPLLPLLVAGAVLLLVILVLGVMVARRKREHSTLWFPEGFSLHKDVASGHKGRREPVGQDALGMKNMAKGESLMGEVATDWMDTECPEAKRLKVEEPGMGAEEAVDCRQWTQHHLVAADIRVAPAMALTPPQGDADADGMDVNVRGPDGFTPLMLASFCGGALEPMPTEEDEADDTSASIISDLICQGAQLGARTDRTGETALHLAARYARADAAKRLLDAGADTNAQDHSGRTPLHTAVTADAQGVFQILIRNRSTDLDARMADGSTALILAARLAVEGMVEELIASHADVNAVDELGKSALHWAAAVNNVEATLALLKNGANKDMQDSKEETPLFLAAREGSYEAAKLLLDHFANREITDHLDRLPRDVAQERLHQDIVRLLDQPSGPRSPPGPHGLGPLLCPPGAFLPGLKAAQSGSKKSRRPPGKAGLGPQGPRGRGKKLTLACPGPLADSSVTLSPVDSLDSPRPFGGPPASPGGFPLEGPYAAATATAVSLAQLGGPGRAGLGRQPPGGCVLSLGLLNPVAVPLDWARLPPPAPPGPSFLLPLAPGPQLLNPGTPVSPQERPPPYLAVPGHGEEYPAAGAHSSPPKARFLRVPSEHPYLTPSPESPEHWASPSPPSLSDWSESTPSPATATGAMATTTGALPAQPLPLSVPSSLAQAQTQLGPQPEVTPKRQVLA
PROTOCOL_SUMMARY: small molecules binding NOTCH3 protein – biochemical, 635/667 nm fluorescence, primary screen (AID 1096)
SETTINGS: small-molecule microarray, 635 nm fluorescence, higher = more signal
Assign class by composite z-score: not lower than 0.3 means Fulfilled; lower than 0.3 means Not fulfilled.

1. Cc1ccc(F)cc1S(=O)(=O)N[C@H]1CCN(Cc2ccc(OC(C)C)cc2)C1
Not fulfilled
2. O=C1N(Cc2ccccc2)c2ccccc2C[C@@]12COC(c1ccc(OCCCO)cc1)=N2
Fulfilled
3. [N-]=[N+]=Nc1ccccc1C[C@@]1(C(=O)NCC(O)CO)N=C(c2ccc(OCCCO)cc2)O[C@@H]1c1ccccc1 (stereo not given in full)
Not fulfilled
4. C=CCOC(=O)[C@@H]1[C@H]2C(=O)O[C@H](c3ccccc3)[C@H](c3ccccc3)N2[C@H](c2ccc(OCCOC(=O)[C@H]3C[C@H]4C(=O)NCC(=O)N4[C@H]3c3cccc(OCCO)c3)cc2)[C@@]12C(=O)Nc1ccc(I)cc12
Fulfilled
5. COc1ccc(C#Cc2ccc3c(c2)[C@]2(C(=O)N3)[C@H](C(=O)O)[C@H]3C(=O)O[C@H](c4ccccc4)[C@H](c4ccccc4)N3[C@@H]2c2ccccc2OCCO)cc1
Fulfilled
6. CC1CC/C=C\[C@H]2OC34C=CCN(Cn5nnc6ccccc65)C(=O)[C@H]3N(CCCCCCO)C(=O)[C@@H]4C2C(=O)O1 (stereo not given in full)
Not fulfilled
7. CC(C)c1nc2cc(Br)ccc2c(=O)o1
Fulfilled
8. C=CC1c2cc(O)c(OC)cc2CCN1C (stereo not given)
Not fulfilled
9. C[C@@H]1ON(c2ccc(I)cc2)[C@H](c2cccc(NC(=O)OCC3c4ccccc4-c4ccccc43)c2)[C@H]1C(=O)N1C(=O)OC[C@H]1Cc1ccccc1
Fulfilled
10. COC(=O)[C@@]1(Cc2ccccc2)[C@H]2c3cc(C(=O)N(C)C)n(Cc4ccc(C(F)(F)F)nc4)c3C[C@H]2CN1C(=O)c1ccccc1
Fulfilled
11. O=C(NCC(O)CO)[C@@]1(CCS(=O)(=O)c2ccccc2)N=C(c2ccc(OCCCO)cc2)O[C@H]1c1ccccc1 (stereo not given in full)
Not fulfilled
12. COC(=O)[C@@]1(Cc2ccc(OC)cc2)[C@H]2c3cc(C(=O)N4CCCC4)n(Cc4ccc(C(F)(F)F)nc4)c3C[C@H]2CN1C(=O)c1ccccc1
Not fulfilled
13. O=C1O[C@@H](c2ccccc2)[C@@H](c2ccccc2)N2[C@@H](c3ccc(OCCO)cc3)[C@]3(C(=O)Nc4ccc(C#CCCO)cc43)[C@@H](C(=O)O)[C@H]12
Fulfilled
14. C[C@@H]1ON(c2ccccc2)[C@H](c2ccccc2)[C@H]1C(=O)O
Not fulfilled
